Assay: MF solubility in cyclodextrin solutions
Type: physicochemical
Conditions: SBE(6.2) gamma-CD 0.2M; 3 mM citrate buffer pH 4.5
READOUT LABEL: Concentration of MF in solutions with cyclodextrins (µg/mL)
Report the figure in µg/mL without appending any unit label.

Concentration of MF in solutions with cyclodextrins for C[C@@H]1C[C@H]2[C@@H]3CCC4=CC(=O)C=C[C@]4(C)[C@@]3(Cl)[C@@H](O)C[C@]2(C)[C@@]1(OC(=O)c1ccco1)C(=O)CCl [MF, mometasone furoate] is 1940

* * *

Test: Effect of additives on MF solubility in 0.2 M Captisol solution
Type: physicochemical
Conditions: aqueous with cosolvent or surfactant or cyclodextrin, 0.2 M Captisol + 1% v/v EtOH
READOUT LABEL: solubility (µg/mL)
Note: unit µg/mL is implicit; provide only the numeric part.

solubility reported for this compound C[C@@H]1C[C@H]2[C@@H]3CCC4=CC(=O)C=C[C@]4(C)[C@@]3(Cl)[C@@H](O)C[C@]2(C)[C@@]1(OC(=O)c1ccco1)C(=O)CCl [MF, mometasone furoate] : 236

* * *

Assay: Micellar solubility determination of MF in 10% surfactant solutions in water
Type: physicochemical
Settings: 10% w/w excipient solution in water, aqueous with cosolvent or surfactant or cyclodextrin, thermodynamic from solid, anhydrous MF; 10% w/w CREMOPHOR RH 40 (polyoxyl 40 hydrogenated castor oil) in water
READOUT LABEL: solubility

Reported solubility for C[C@@H]1C[C@H]2[C@@H]3CCC4=CC(=O)C=C[C@]4(C)[C@@]3(Cl)[C@@H](O)C[C@]2(C)[C@@]1(OC(=O)c1ccco1)C(=O)CCl [MF, mometasone furoate] was 180 to 200 µg/mL

* * *

Assay: Microemulsion equilibrium solubility determination of mometasone furoate
Format: physicochemical
Conditions: SOLUTOL HS-15-based microemulsion, aqueous with cosolvent or surfactant or cyclodextrin, thermodynamic from solid, microemulsion Example 1: MIGLYOL 812 4% w/w, SOLUTOL HS 15 20% w/w; read-out: Solubilized MF
READOUT LABEL: solubility at 72 h

Consider C[C@@H]1C[C@H]2[C@@H]3CCC4=CC(=O)C=C[C@]4(C)[C@@]3(Cl)[C@@H](O)C[C@]2(C)[C@@]1(OC(=O)c1ccco1)C(=O)CCl [MF, mometasone furoate] . Its measured solubility at 72 h is 502 µg/mL

* * *

Assay: Microemulsion equilibrium solubility determination of mometasone furoate
Type: physicochemical
Conditions: SOLUTOL HS-15-based microemulsion, aqueous with cosolvent or surfactant or cyclodextrin, thermodynamic from solid, microemulsion Example 6: corn oil 3% w/w, SOLUTOL HS 15 20% w/w; read-out: Solubilized MF
READOUT LABEL: solubility at 72 h (µg/mL)
Report the value in µg/mL with no unit label.

Summary for this molecule, C[C@@H]1C[C@H]2[C@@H]3CCC4=CC(=O)C=C[C@]4(C)[C@@]3(Cl)[C@@H](O)C[C@]2(C)[C@@]1(OC(=O)c1ccco1)C(=O)CCl [MF, mometasone furoate] : solubility at 72 h is 408

* * *

Assay: Micellar solubility determination of MF in 10% surfactant solutions in water
Format: physicochemical
Conditions: 10% w/w excipient solution in water, aqueous with cosolvent or surfactant or cyclodextrin, thermodynamic from solid, anhydrous MF; 10% w/w LUTROL F127 (poloxamer 407) in water
READOUT LABEL: solubility (µg/mL)
Record the value in µg/mL, omitting the unit from your answer.

# compound C[C@@H]1C[C@H]2[C@@H]3CCC4=CC(=O)C=C[C@]4(C)[C@@]3(Cl)[C@@H](O)C[C@]2(C)[C@@]1(OC(=O)c1ccco1)C(=O)CCl [MF, mometasone furoate] ; its solubility = 27

* * *

Test: Effect of additives on MF solubility in 0.2 M Captisol solution
Assay type: physicochemical
Details: aqueous with cosolvent or surfactant or cyclodextrin, 0.2 M Captisol + 0.1% w/v Na-CMC
READOUT LABEL: solubility (µg/mL)
Your answer is read as µg/mL, so omit the unit and give the number.

Summary for this molecule, C[C@@H]1C[C@H]2[C@@H]3CCC4=CC(=O)C=C[C@]4(C)[C@@]3(Cl)[C@@H](O)C[C@]2(C)[C@@]1(OC(=O)c1ccco1)C(=O)CCl [MF, mometasone furoate] : solubility is 242

* * *

Test: Microemulsion equilibrium solubility determination of mometasone furoate
Format: physicochemical
Details: SOLUTOL HS-15-based microemulsion, aqueous with cosolvent or surfactant or cyclodextrin, thermodynamic from solid, microemulsion Example 5: CAPRYOL 3% w/w, SOLUTOL HS 15 20% w/w; read-out: Solubilized MF
READOUT LABEL: solubility at 72 h
Kindly report the value followed by its unit.

The recorded solubility at 72 h for C[C@@H]1C[C@H]2[C@@H]3CCC4=CC(=O)C=C[C@]4(C)[C@@]3(Cl)[C@@H](O)C[C@]2(C)[C@@]1(OC(=O)c1ccco1)C(=O)CCl [MF, mometasone furoate] is 422 µg/mL

* * *

Assay: MF solubility in cyclodextrin solutions
Assay type: physicochemical
Conditions: SBE(6.2) gamma-CD 0.1M; 3 mM citrate buffer pH 4.5
READOUT LABEL: Concentration of MF in solutions with cyclodextrins (µg/mL)
Write the number in µg/mL without appending the unit.

Recorded Concentration of MF in solutions with cyclodextrins (molecule C[C@@H]1C[C@H]2[C@@H]3CCC4=CC(=O)C=C[C@]4(C)[C@@]3(Cl)[C@@H](O)C[C@]2(C)[C@@]1(OC(=O)c1ccco1)C(=O)CCl [MF, mometasone furoate] ): 569

* * *

Assay: Micellar solubility determination of MF in 10% surfactant solutions in water
Assay type: physicochemical
Settings: 10% w/w excipient solution in water, aqueous with cosolvent or surfactant or cyclodextrin, thermodynamic from solid, anhydrous MF; 10% w/w TWEEN 80 (polysorbate 80) in water
READOUT LABEL: solubility

solubility reported for this compound C[C@@H]1C[C@H]2[C@@H]3CCC4=CC(=O)C=C[C@]4(C)[C@@]3(Cl)[C@@H](O)C[C@]2(C)[C@@]1(OC(=O)c1ccco1)C(=O)CCl [MF, mometasone furoate] : 180 to 200 µg/mL

* * *

Assay: MF solubility in cyclodextrin solutions
Format: physicochemical
Conditions: SBE(6.2) gamma-CD 0.05M; 3 mM citrate buffer pH 4.5
READOUT LABEL: Concentration of MF in solutions with cyclodextrins (µg/mL)
The reply should contain only the number, in µg/mL.

Query C[C@@H]1C[C@H]2[C@@H]3CCC4=CC(=O)C=C[C@]4(C)[C@@]3(Cl)[C@@H](O)C[C@]2(C)[C@@]1(OC(=O)c1ccco1)C(=O)CCl [MF, mometasone furoate] yields Concentration of MF in solutions with cyclodextrins of 250

* * *

Test: Effect of additives on MF solubility in 0.2 M Captisol solution
Format: physicochemical
Conditions: aqueous with cosolvent or surfactant or cyclodextrin, 0.2 M Captisol + 0.1% w/v HPMC
READOUT LABEL: solubility
Write the quantity with the unit trailing the number.

Memo: C[C@@H]1C[C@H]2[C@@H]3CCC4=CC(=O)C=C[C@]4(C)[C@@]3(Cl)[C@@H](O)C[C@]2(C)[C@@]1(OC(=O)c1ccco1)C(=O)CCl [MF, mometasone furoate] , reported solubility: 258 µg/mL

* * *

Experiment: MF solubility in cyclodextrin solutions
Format: physicochemical
Details: unsubstituted gamma-CD 0.1M; 3 mM citrate buffer pH 4.5
READOUT LABEL: Concentration of MF in solutions with cyclodextrins (µg/mL)
Output spec: scalar in µg/mL, unitless text.

Reported Concentration of MF in solutions with cyclodextrins for C[C@@H]1C[C@H]2[C@@H]3CCC4=CC(=O)C=C[C@]4(C)[C@@]3(Cl)[C@@H](O)C[C@]2(C)[C@@]1(OC(=O)c1ccco1)C(=O)CCl [MF, mometasone furoate] was 249

* * *

Assay: Microemulsion equilibrium solubility determination of mometasone furoate
Format: physicochemical
Conditions: POLOXAMER 407-based microemulsion, aqueous with cosolvent or surfactant or cyclodextrin, thermodynamic from solid, microemulsion: ethyl laurate 5% w/w, POLOXAMER 407 10% w/w; read-out: MF Solubility
READOUT LABEL: solubility at 72 h (µg/mL)
Field format: number, assumed µg/mL, no unit text.

Record C[C@@H]1C[C@H]2[C@@H]3CCC4=CC(=O)C=C[C@]4(C)[C@@]3(Cl)[C@@H](O)C[C@]2(C)[C@@]1(OC(=O)c1ccco1)C(=O)CCl [MF, mometasone furoate] , field solubility at 72 h: 90

* * *

Assay: MF solubility in cyclodextrin solutions
Format: physicochemical
Settings: unsubstituted gamma-CD 0.05M; 3 mM citrate buffer pH 4.5
READOUT LABEL: Concentration of MF in solutions with cyclodextrins (µg/mL)
Express the result in µg/mL but write the number alone.

// sample C[C@@H]1C[C@H]2[C@@H]3CCC4=CC(=O)C=C[C@]4(C)[C@@]3(Cl)[C@@H](O)C[C@]2(C)[C@@]1(OC(=O)c1ccco1)C(=O)CCl [MF, mometasone furoate] , its Concentration of MF in solutions with cyclodextrins was 117
